// values below are reported IC50
- TESTED TARGET: ligand binding domain of the glucocorticoid receptor (HEK293 cells stably expressing) (Homo sapiens, UniProt P04150)
- Sequence (P04150 524-758 limits assumed): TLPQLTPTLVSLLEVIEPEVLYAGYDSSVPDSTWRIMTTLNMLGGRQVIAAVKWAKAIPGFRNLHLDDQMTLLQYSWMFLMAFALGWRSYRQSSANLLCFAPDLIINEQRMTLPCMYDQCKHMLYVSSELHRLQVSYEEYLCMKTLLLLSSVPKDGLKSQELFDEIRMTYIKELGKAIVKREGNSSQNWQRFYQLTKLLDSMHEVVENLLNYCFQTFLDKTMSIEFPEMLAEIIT
- ASSAY INFO: GR antagonism assay (luciferase reporter)

Consider the reported IC50 for these compounds:
{"COMPOUND": "CC[C@@]1(O)C(=O)OCc2c1cc1n(c2=O)Cc2cc3c(CN4CCN(C(=O)OCCCCN(C)c5ccc([C@H]6C[C@@]7(C)[C@@H](CC[C@]7(OC(C)=O)C(C)=O)[C@@H]7CCC8=CC(=O)CCC8=C76)cc5)CC4)c(O)ccc3nc2-1 [Compound 41]", "IC50": "< 10 nM"}
{"COMPOUND": "CC[C@@]1(O)C(=O)OCc2c1cc1n(c2=O)Cc2cc3c(CN(C)C)c(OC(=O)N4C[C@H](C)N(C(=O)[C@H](CCCNC(N)=O)NC(=O)[C@@H](NCCCCCCN(C)c5ccc([C@H]6C[C@@]7(C)[C@@H](CC[C@]7(OC(C)=O)C(C)=O)[C@@H]7CCC8=CC(=O)CCC8=C76)cc5)C(C)C)C[C@H]4C)ccc3nc2-1 [Compound 35]", "IC50": "10 to 100 nM"}
{"COMPOUND": "CC[C@@]1(O)C(=O)OCc2c1cc1n(c2=O)Cc2cc3c(CN(C)C)c(OC(=O)N4CCN(CC5CCN(c6ccc(C(=O)N[C@H]7CC[C@H](N(C)c8ccc(C#N)c(Cl)c8)CC7)nn6)CC5)CC4)ccc3nc2-1 [Compound No. 18]", "IC50": "101 to 1000 nM"}

Input: // returns reported IC50 for input CC[C@@]1(O)C(=O)OCc2c1cc1n(c2=O)Cc2cc3c(CN(C)C)c(OC(=O)N4CCN(CCCCCN(C)c5ccc([C@H]6C[C@@]7(C)[C@@H](CC[C@]7(OC(C)=O)C(C)=O)[C@@H]7CCC8=CC(=O)CCC8=C76)cc5)CC4)ccc3nc2-1 [Compound 8]
Output: 10 to 100 nM

---

- TESTED TARGET: full-length androgen receptor (HEK293 cells stably expressing) (Homo sapiens, UniProt P10275)
- Sequence (P10275 whole entry): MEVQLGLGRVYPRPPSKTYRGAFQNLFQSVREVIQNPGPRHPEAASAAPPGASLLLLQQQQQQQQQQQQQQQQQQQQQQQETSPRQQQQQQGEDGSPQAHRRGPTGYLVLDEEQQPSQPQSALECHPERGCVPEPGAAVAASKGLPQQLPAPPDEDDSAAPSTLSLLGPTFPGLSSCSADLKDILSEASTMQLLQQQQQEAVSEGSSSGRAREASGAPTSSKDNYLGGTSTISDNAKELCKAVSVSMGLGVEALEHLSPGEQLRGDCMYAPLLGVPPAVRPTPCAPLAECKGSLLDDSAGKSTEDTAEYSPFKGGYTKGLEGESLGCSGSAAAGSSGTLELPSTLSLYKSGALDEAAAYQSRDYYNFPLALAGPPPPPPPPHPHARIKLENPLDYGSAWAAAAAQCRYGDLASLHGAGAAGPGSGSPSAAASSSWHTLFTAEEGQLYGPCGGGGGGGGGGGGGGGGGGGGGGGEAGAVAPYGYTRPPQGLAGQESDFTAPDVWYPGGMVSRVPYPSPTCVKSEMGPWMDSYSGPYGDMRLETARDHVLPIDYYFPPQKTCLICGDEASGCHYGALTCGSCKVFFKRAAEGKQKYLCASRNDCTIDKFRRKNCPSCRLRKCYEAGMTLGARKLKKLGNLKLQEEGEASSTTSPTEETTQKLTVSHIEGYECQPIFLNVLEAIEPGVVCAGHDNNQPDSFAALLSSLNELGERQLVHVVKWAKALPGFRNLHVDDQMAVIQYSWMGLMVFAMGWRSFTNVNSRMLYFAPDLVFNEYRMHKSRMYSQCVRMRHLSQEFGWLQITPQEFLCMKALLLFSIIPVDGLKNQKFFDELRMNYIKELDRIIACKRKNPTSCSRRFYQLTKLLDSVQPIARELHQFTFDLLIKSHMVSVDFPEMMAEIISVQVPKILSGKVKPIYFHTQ
- ASSAY INFO: AR antagonism assay (luciferase reporter)
pIC50: −log10 of the molar value.
EXPERIMENTAL READOUT: pIC50

Consider the reported pIC50 for these compounds:
{"SMILES STRUCTURE": "CC[C@@]1(O)C(=O)OCc2c1cc1n(c2=O)Cc2c-1nc1cc(F)c(C)c3c1c2[C@@H](NCC1CCN(CC2CCN(C(=O)CN(C)c4ccc([C@H]5C[C@@]6(C)[C@@H](CC[C@]6(OC(C)=O)C(C)=O)[C@@H]6CCC7=CC(=O)CCC7=C65)cc4)CC2)CC1)CC3", "pIC50": "7.00 to 8.00"}
{"SMILES STRUCTURE": "CC[C@@]1(O)C(=O)OCc2c1cc1n(c2=O)Cc2cc3c(CN(C)C)c(OC(=O)N4C[C@H](C)N(C(=O)C5CCN(c6ccc(C(=O)N[C@H]7CC[C@H](Oc8ccc(C#N)c(Cl)c8C)CC7)nn6)CC5)C[C@H]4C)ccc3nc2-1", "pIC50": "< 6.00"}
{"SMILES STRUCTURE": "CC[C@@]1(O)C(=O)OCc2c1cc1n(c2=O)Cc2c-1nc1cc(F)c(C)c3c1c2[C@@H](N(C)C(=O)COCC1CCN(CCCCCCCN(C)c2ccc([C@H]4C[C@@]5(C)[C@@H](CC[C@]5(OC(C)=O)C(C)=O)[C@@H]5CCC6=CC(=O)CCC6=C54)cc2)CC1)CC3", "pIC50": "6.00 to 7.00"}
{"SMILES STRUCTURE": "CC[C@@]1(O)C(=O)OCc2c1cc1n(c2=O)Cc2cc3c(CN(C)C)c(OC(=O)N4C[C@H](C)N(CCCCCCN(C)C5CCN(c6ccc(C(=O)N[C@H]7CC[C@H](Oc8ccc(C#N)c(Cl)c8C)CC7)nn6)CC5)C[C@H]4C)ccc3nc2-1", "pIC50": "< 6.00"}
{"SMILES STRUCTURE": "CC[C@@]1(O)C(=O)OCc2c1cc1n(c2=O)Cc2cc3c(CN(C)C)c(OC(=O)N4CCN(CC5CCN(c6ccc(C(=O)N[C@H]7CC[C@H](Oc8ccc(C#N)c(Cl)c8C)CC7)nn6)CC5)CC4)ccc3nc2-1", "pIC50": "< 6.00"}
{"SMILES STRUCTURE": "CC[C@@]1(O)C(=O)OCc2c1cc1n(c2=O)Cc2cc3c(CN(C)C)c(OC(=O)N4CCN(CCCCCCNc5ccc([C@H]6C[C@@]7(C)[C@@H](CC[C@]7(OC(C)=O)C(C)=O)[C@@H]7CCC8=CC(=O)CCC8=C76)cc5)CC4)ccc3nc2-1", "pIC50": "6.00 to 7.00"}

The record that follows has no pIC50 shown yet.
Input: // returns reported pIC50 for input `CC[C@@]1(O)C(=O)OCc2c1cc1n(c2=O)Cc2cc3c(CN(C)C)c(OC(=O)N4C[C@H](C)N(CC5CCN(c6ccc(C(=O)N[C@H]7CC[C@H](Oc8ccc(C#N)c(Cl)c8C)CC7)nn6)CC5)C[C@H]4C)ccc3nc2-1`
Output: 6.00 to 7.00
